Here the recorded EC50 is given for each entry.
- target: CFTR (Homo sapiens)
- test_name: Membrane Potential Dye, Enteroid Assay A
- Type: cell-based
- condition_set: Enteroid Assay A; read-out: Ent. A EC50

Guide cases for EC50, answers given:
Cc1cccc(C)c1-c1cc2nc(n1)NS(=O)(=O)c1cccc(c1)C(=O)NCc1cccc(c1)O2 [Compound 197]: 3 to 30 µM
CC(C)CCc1ccccc1-c1cc2nc(n1)NS(=O)(=O)c1cccc(c1)C(=O)N[C@H](CC(C)C)CO2 [Compound 104]: < 1 µM
Cc1cccc(C)c1-c1cc2nc(n1)NS(=O)(=O)c1cccc(c1)C(=O)NC[C@H](Cc1ccccc1)O2 [Compound 346]: < 1 µM

// Cc1cccc(C)c1-c1cc2nc(n1)NS(=O)(=O)c1cccc(c1)C(=O)NCC(CC(C)C)O2 (stereo not shown) [Compound 490] : EC50 value = 1 to 3 µM

// Cc1cccc(C)c1-c1cc2nc(n1)NS(=O)(=O)c1cccc(c1)C(=O)N[C@H](CC1CCOCC1)CO2 (stereo in doubt) [Compound 191] : EC50 value = 3 to 30 µM

// CCC1CC=C(c2cc3nc(n2)NS(=O)(=O)c2cccc(c2)C(=O)N[C@H](CC(C)C)CO3)CC1 (stereo partly shown) [Compound 322] : EC50 value = 1 to 3 µM

// CC(C)C[C@@H]1COc2cc(C3=CC(C)CC3(C)C)nc(n2)NS(=O)(=O)c2cccc(c2)C(=O)N1 (stereo partly shown) [Compound 320] : EC50 value = < 1 µM

---

- target: CFTR (Homo sapiens)
- test_name: Membrane Potential Dye, Enteroid Assay A
- Assay type: cell-based
- condition_set: Enteroid Assay A; read-out: Ent. A EC50
readout: EC50

CCC[C@H](NC(=O)OC(C)(C)C)C(=O)N1CCC2(CC1)CNC(=O)c1cccc(c1)S(=O)(=O)Nc1nc(cc(-c3c(C)cccc3C)n1)OC2 [Compound 469]: 3 to 30 µM
Cc1cccc(C)c1-c1cc2nc(n1)NS(=O)(=O)c1cccc(c1)C(=O)NCC1(CCN(C(=O)c3c(C)c4ccccc4n3C)CC1)CO2 [Compound 455]: 1 to 3 µM
Cc1cccc(C)c1-c1cc2nc(n1)NS(=O)(=O)c1cccc(c1)C(=O)N[C@H](COCc1ccccc1)CO2 [Compound 486]: 1 to 3 µM

Below: the item to evaluate.
// CC(C)C[C@@H]1COc2cc(-c3ccnn3CC(C)C)nc(n2)NS(=O)(=O)c2cccc(c2)C(=O)N1 [Compound 102] : EC50 value = 3 to 30 µM

---

- target: CFTR (Homo sapiens, UniProt P13569)
- Sequence (P13569 with tags, fused parts or gaps DEL508-508): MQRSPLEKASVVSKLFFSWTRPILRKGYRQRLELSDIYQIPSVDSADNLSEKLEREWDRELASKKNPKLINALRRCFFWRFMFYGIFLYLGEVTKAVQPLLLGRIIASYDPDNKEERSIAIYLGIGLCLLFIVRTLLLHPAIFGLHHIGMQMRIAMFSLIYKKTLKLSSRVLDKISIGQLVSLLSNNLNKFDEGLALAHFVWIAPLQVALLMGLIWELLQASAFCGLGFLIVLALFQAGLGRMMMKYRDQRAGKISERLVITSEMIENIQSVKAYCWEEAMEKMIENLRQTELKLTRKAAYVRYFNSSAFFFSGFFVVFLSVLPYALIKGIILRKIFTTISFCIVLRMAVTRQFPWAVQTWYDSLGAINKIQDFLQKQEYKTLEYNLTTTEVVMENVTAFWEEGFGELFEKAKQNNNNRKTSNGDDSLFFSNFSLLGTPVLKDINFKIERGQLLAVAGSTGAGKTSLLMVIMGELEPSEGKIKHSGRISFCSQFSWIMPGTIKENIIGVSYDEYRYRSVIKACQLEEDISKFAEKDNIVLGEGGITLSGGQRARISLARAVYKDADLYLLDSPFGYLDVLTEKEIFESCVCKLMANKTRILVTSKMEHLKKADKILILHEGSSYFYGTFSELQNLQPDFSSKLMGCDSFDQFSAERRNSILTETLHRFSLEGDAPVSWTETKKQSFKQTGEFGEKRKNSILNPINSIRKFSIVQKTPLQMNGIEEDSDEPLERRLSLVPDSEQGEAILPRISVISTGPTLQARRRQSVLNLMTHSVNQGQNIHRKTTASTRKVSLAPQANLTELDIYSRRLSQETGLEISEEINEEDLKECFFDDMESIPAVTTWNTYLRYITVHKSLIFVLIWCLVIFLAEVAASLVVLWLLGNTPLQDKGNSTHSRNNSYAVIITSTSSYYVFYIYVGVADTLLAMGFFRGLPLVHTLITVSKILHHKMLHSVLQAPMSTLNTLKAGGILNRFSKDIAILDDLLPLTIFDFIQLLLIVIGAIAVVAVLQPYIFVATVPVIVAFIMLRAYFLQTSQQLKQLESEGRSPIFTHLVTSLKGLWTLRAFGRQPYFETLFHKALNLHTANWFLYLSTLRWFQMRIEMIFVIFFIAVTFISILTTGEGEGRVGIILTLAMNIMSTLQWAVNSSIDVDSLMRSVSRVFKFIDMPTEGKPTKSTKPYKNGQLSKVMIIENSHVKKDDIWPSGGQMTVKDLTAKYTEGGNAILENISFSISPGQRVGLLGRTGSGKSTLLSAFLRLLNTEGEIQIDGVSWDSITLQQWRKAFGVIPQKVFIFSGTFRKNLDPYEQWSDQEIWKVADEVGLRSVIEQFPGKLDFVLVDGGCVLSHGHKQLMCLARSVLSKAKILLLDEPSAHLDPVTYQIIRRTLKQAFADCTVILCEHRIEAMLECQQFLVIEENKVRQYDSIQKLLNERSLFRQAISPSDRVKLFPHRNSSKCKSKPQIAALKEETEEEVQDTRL
- test_name: Membrane Potential Dye, Enteroid Assay A
- Format: cell-based
- condition_set: Enteroid Assay A
readout: Ent. A Max Activity

Cc1cccc(C)c1-c1cc2nc(n1)NS(=O)(=O)c1cccc(c1)C(=O)NCC1(CCN(Cc3sccc3Oc3ccccc3)CC1)CO2 [Compound 83]: +++ (+++ is >600%)
CC(C)C[C@@H]1COc2cc(C3=CC(C)CC3(C)C)nc(n2)NS(=O)(=O)c2cccc(c2)C(=O)N1 (stereo partly shown) [Compound 320]: ++ (++ is 30-60%)
Cc1cccc(C)c1-c1cc2nc(n1)NS(=O)(=O)c1cccc(c1)C(=O)NCC1(CCN(C(=O)[C@H]3[C@H](c4ccccc4)C3(C)C)CC1)CO2 [Compound 465]: ++ (++ is 30-60%)
Cc1ccccc1-c1cc2nc(n1)NS(=O)(=O)c1cccc(c1)C(=O)N[C@H](CC(C)C)CO2 [Compound 329]: +++ (+++ is >600%)
Cc1cccc(C)c1-c1cc2nc(n1)NS(=O)(=O)c1cccc(c1)C(=O)NCC1(CCN(C(=O)C3(c4ccc5c(c4)CCC5)CC3)CC1)CO2 [Compound 464]: +++ (+++ is >600%)
CC(C)C[C@@H]1COc2cc(-c3ccccc3OCC3CC3)nc(n2)NS(=O)(=O)c2cccc(c2)C(=O)N1 [Compound 344]: ++ (++ is 30-60%)

Below: the item to evaluate.
// Cc1cccc(C)c1-c1cc2nc(n1)NS(=O)(=O)c1cccc(c1)C(=O)N[C@H](CC(C)C)CO2 [Compound 96] : Ent. A Max Activity value = +++ (+++ is >600%)

---

- target: CFTR (Homo sapiens)
- test_name: Membrane Potential Dye, Enteroid Assay A
- Type: cell-based
- condition_set: Enteroid Assay A
readout: Ent. A Max Activity

CC(C)C[C@@H]1COc2cc(-c3ccnn3CC(C)C)nc(n2)NS(=O)(=O)c2cccc(c2)C(=O)N1 [Compound 102]: ++ (++ is 30-60%)
CC(C)C[C@@H]1COc2cc(-c3ccccc3)nc(n2)NS(=O)(=O)c2cccc(c2)C(=O)N1 [Compound 340]: ++ (++ is 30-60%)
COc1cccc(-c2cccc(C(=O)N3CCC4(CC3)CNC(=O)c3cccc(c3)S(=O)(=O)Nc3nc(cc(-c5c(C)cccc5C)n3)OC4)c2)c1 [Compound 459]: ++ (++ is 30-60%)

---

- target: CFTR (Homo sapiens, UniProt P13569)
- test_name: Membrane Potential Dye, Enteroid Assay A
- Type: cell-based
- condition_set: Table 8
readout: Ent. A Max Activity

Guide cases for Ent. A Max Activity, answers given:
Cc1cccc(F)c1-c1cc2nc(n1)NS(=O)(=O)c1cccc(c1)C(=O)N[C@H](CC(C)C)CO2: +++ (+++ is >60%)
Cc1cccc(C)c1-c1cc2nc(n1)NS(=O)(=O)c1cccc(c1)C(=O)N[C@@H](CCC(C)(C)C)CO2 (single isomer, unassigned): + (+ is <30%)
Cc1cc(C2CNC(=O)c3cccc(c3)S(=O)(=O)Nc3nc(cc(-c4c(C)cccc4C)n3)O2)cc2c1OC(C)(C)C2 (stereo not drawn): + (+ is <30%)
CCC(CC)[C@@H]1COc2cc(-c3c(C)cccc3C)nc(n2)NS(=O)(=O)c2cccc(c2)C(=O)N1: +++ (+++ is >60%)
Cc1cccc(C)c1-c1cc2nc(n1)NS(=O)(=O)c1cccc(c1)C(=O)NCC(c1ccc(Br)cc1)O2 (single isomer, unassigned) [Compound 19]: + (+ is <30%)

Below: the item to evaluate.
// CC1=C(c2cc3nc(n2)NS(=O)(=O)c2cccc(c2)C(=O)N[C@H](CC(C)C)CO3)C(C)CCC1 (stereo partly drawn) : Ent. A Max Activity value = +++ (+++ is >60%)

---

- target: CFTR (Homo sapiens)
- test_name: Membrane Potential Dye, Enteroid Assay A
- Type: cell-based
- condition_set: Table 9
readout: Ent. A Max Activity

Guide cases for Ent. A Max Activity, answers given:
Cc1cccc(C)c1-c1cc2nc(n1)NS(=O)(=O)c1cccc(c1)C(=O)N[C@@H](CC(C)(C)C)[C@H](C)O2 [Compound 130]: +++ (+++ is >60%)
Cc1cccc(C)c1-c1cc2nc(n1)NS(=O)(=O)c1cccc(c1)C(=O)N[C@@H]1CN(C3CC4(CCCCC4)C3)CC[C@H]1O2 [Compound 60]: +++ (+++ is >60%)
Cc1cccc(C)c1-c1cc2nc(n1)NS(=O)(=O)c1cccc(c1)C(=O)N[C@@H]1CN(c3ncc(C(F)(F)F)cn3)C[C@H]1O2 [Compound 372]: +++ (+++ is >60%)
Cc1cccc(C)c1-c1cc2nc(n1)NS(=O)(=O)c1cccc(c1)C(=O)N[C@@H]1CN(C(=O)CC(C)(C)C)C[C@H]1O2 [Compound 381]: ++ (++ is 30-60%)
CC(C)C[C@@H]1COc2cc(-c3ncccn3)nc(n2)NS(=O)(=O)c2cccc(c2)C(=O)N1 [Compound 178]: + (+ is <30%)
Cc1cccc(C)c1-c1cc2nc(n1)NS(=O)(=O)c1cccc(c1)C(=O)N[C@@H](C(CC(C)C)c1ccccc1)CO2 (stereo in doubt) [Compound 180]: ++ (++ is 30-60%)

// Cc1cccc(C)c1-c1cc2nc(n1)NS(=O)(=O)c1cccc(c1)C(=O)N[C@@H]1CN(C(C)C)C[C@H]1O2 [Compound 375] : Ent. A Max Activity value = +++ (+++ is >60%)

// Cc1cccc(C)c1-c1cc2nc(n1)NS(=O)(=O)c1cccc(c1)C(=O)NCC(c1ccc(C3(C)CC3)cc1)O2 (stereo not drawn) [Compound 265] : Ent. A Max Activity value = ++ (++ is 30-60%)

// Cc1cccc(C)c1-c1cc2nc(n1)NS(=O)(=O)c1cccc(c1)C(=O)N[C@H](C)[C@H](c1ccc(C(F)(F)F)cc1)O2 [Compound 42] : Ent. A Max Activity value = ++ (++ is 30-60%)

// Cc1cccc(CO)c1-c1cc2nc(n1)NS(=O)(=O)c1cccc(c1)C(=O)N[C@H](CC(C)C)CO2 [Compound 395] : Ent. A Max Activity value = ++ (++ is 30-60%)

// Cc1cccc(C)c1-c1cc2nc(n1)NS(=O)(=O)c1cccc(c1)C(=O)N[C@@H]1CN(C3CC4(CCCC4)C3)C[C@H]1O2 [Compound 56] : Ent. A Max Activity value = +++ (+++ is >60%)

// Cc1cccc(C)c1-c1cc2nc(n1)NS(=O)(=O)c1cccc(c1)C(=O)N[C@H](CC(C)C)[C@@H](c1ccc(C(C)(C)C)cc1)O2 (single isomer, unassigned) [Compound 40] : Ent. A Max Activity value = +++ (+++ is >60%)

// Cc1cccc(C)c1-c1cc2nc(n1)NS(=O)(=O)c1cccc(c1)C(=O)N[C@@H]1CCN(C(=O)OC(C)(C)C)C[C@H]1O2 (single isomer, unassigned) [Compound 87] : Ent. A Max Activity value = +++ (+++ is >60%)

// Cc1cccc(C)c1-c1cc2nc(n1)NS(=O)(=O)c1cccc(c1)C(=O)NC(C)(CC(C)C)CO2 (stereo not drawn) [Compound 177] : Ent. A Max Activity value = +++ (+++ is >60%)

// Cc1cccc(C)c1-c1cc2nc(n1)NS(=O)(=O)c1cccc(c1)C(=O)N[C@@H](C(CC(C)C)c1ccccc1)CO2 (stereo in doubt) [Compound 182] : Ent. A Max Activity value = ++ (++ is 30-60%)
